B1: OR4K15 (parent)
chain: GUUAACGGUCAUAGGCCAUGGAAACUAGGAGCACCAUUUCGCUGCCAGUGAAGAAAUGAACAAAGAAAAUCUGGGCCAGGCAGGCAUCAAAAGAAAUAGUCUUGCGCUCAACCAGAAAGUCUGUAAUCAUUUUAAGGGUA

# Variants of: B1
# method: self-cleavage, relative activity (ratio to wild type); higher = more cleavage; in vitro, sequencing; the parent is a self-cleaving ribozyme
measure_name: self-cleavage

Asked: Look up and state reported self-cleavage for GUUAACGGACAUAGGCCGUGGAAACUAGGAGCACCAUUUCGCUGCCAGUGAAGAAAUGAACAAAGAAAAUCUGGGCCAGGCAGGCAUCAAAAGAAAUAGUCUUGCGCUCAACCAGAAAGUCUGUAAUCAUUUUAAGGGUA
Given back: 1.79

Asked: # return recorded self-cleavage for input GUUAACGGUCAUAGGCCAUGGAAACUAGGAGCACCAUUUCGCUGCCAGUGAAGAAAUGAACAAAGAAAAUCUGGGCCAGGCAGGCAUCAAAAGAAAAAGUCUUGCGCUCAACCAGAAAGUCUGUAAUCAUUUUAGGGGUA
Given back: 1.79

Asked: Report self-cleavage, nothing else, for this variant: GUUAACGGUCAUCGGCCAUGGAAACUAGGAGCACCAUUUCGCUGCCAGUGAAGAAAUGAACAAAGAAAAUCUGGGCCAGGCAGGCAUCAAAAGAAAUAGUCUUGCGCUCAACCAGGAAGUCUGUAAUCAUUUUAAGGGUA
Given back: 0.96

Asked: State its self-cleavage: GUUAACGGUCAUAGGCCAUGGAAACUAGGGGCACCAUUUCGCUGCCAGUGAAGAAAUGAACAAAGAAAAUCUGGGCCAGGCAGGCAUCAAAAGACAUAGUCUUGCGCUCAACCAGAAAGUCUGUAAUCAUUUUAAGGGUA
Given back: 1.26

Asked: Return self-cleavage (reported value) for this variant: GUUAACGGUCAUAGGCCAUGGAAACUAGGAGCACCAUUUCGCUGACAGUGAAGAAAUGAACAAAGAAAAUCUGGGCCAGGCAGGCAUCAAAAGAAAUAGUCUUGCGCUCAACCAGAAAGUCUGUAAUCGUUUUAAGGGUA
Given back: 0.87

Asked: Give the value of self-cleavage reported for the following: GUUAACGGUCAUAGGCCAUGGAAACUAGGAGCACCAUUUUGCUGCCAGUGAAGAAAUGAACAAAGAAAAUCUGGGCCAGGCAGGCAUCAAAAGAAAAAGUCUUGCGCUCAACCAGAAAGUCUGUAAUCAUUUUAAGGGUA
Given back: 1.63

Asked: For GUUAACGGUCAUAGGCCAUGGAAACUAGGAGCACCAUUUCGCUGCCAGUGAAGAAAUGAACAAUGAAAAUCUGGGCCAGGCAGGCAUCAAAAGAAAUUGUCUUGCGCUCAACCAGAAAGUCUGUAAUCAUUUUAAGGGUA , write its self-cleavage.
Given back: 1.98

Asked: Find the measured self-cleavage of GUUAACGGUCAUAGGCCAUGGAAACUAGGAGCACCAUUUCGCUGCCAGUGAAGAAAUGAACAAAGAAAAUCUGGGCCAGGCAGGCAUCAAAAGAAAUAGUCUUGCGCCCAACCAGAAAGUCUGUAAUCAUUAUAAGGGUA and report it.
Given back: 0.02

Asked: Tell us which self-cleavage value is on record for GUUAACGGUCAUAGGCCAUGGAAACUAGGAGCACCAUUUCGCUGCCAGUGAAGAAAUGAACAAAGAAAAUCUGGGCCAGGCAGGCAUCAAAGGAAAUAGUCUUGCGCUCAACCAGAAAGUCUGUAAUCAUAUUAAGGGUA
Given back: 1.33

Asked: For the variant GUUAACGGUCAUAGGCCAUGGAAACUCGGAGCACCAUUUCGCUGCCAGUGAAGAAAUGAACAAAGAAAAUCUGGGCCGGGCAGGCAUCAAAAGAAAUAGUCUUGCGCUCAACCAGAAAGUCUGUAAUCAUUUUAAGGGUA , give its measured self-cleavage value.
Given back: 0.21

Asked: Please report the measured self-cleavage for GUUAACGGUCAUAGGCCAUGGAAACUAGGAGCACCAUUUCGCUGCCAGUGAAGAAAUGAACAAAGAAAAACUGGGCCAGGCAGGCAUCAAAAGAAAUAGUCUUGCGCUCAACCAGAAAGUCUGUAAUCAUUCUAAGGGUA
Given back: 0.6

Asked: Note self-cleavage for the variant shown: GUUAACGGUCAUAGGCCAUGGAAACUAGGAGCACCAUUUCGCUGCCAGUGAAGAAAUGAACAAAGAAAAUCUGGGCCAGGCAGGCAUCAAAAGAAAUAGUCUUGCGCUCAACCAGAAAGCCUGUAAUCGUUUUAAGGGUA
Given back: 0.63

Asked: Tell me its self-cleavage given GUUAACGGUCAUAGGCCAUGGAAACUAGGAGCACCAUUUCGCUGCCAGUGAAGAAAUGAACAAAGAAAAUCUGGGCCAGGCAGCCAUCGAAAGAAAUAGUCUUGCGCUCAACCAGAAAGUCUGUAAUCAUUUUAAGGGUA as the entry.
Given back: 0.34

Asked: Provide self-cleavage value for the following variant: GUUAACGGUCAUAGGCCAUGGAAACUAGGAGCACCAUUUCGCCGCCAGUGAAGAAAUGAACAAAGAAAAUCUGGGCCAGGCAGGCAUCAAAAGAAAUAGUCUUGCGCUCAACCUGAAAGUCUGUAAUCAUUUUAAGGGUA
Given back: 0.05

Asked: Write down self-cleavage measured for item GUUAACGGUCAUAAGCCAUGGAAACAAGGAGCACCAUUUCGCUGCCAGUGAAGAAAUGAACAAAGAAAAUCUGGGCCAGGCAGGCAUCAAAAGAAAUAGUCUUGCGCUCAACCAGAAAGUCUGUAAUCAUUUUAAGGGUA
Given back: 1.2

Asked: Quick one: give measured self-cleavage for GUUAACGGUCAUAGGCCAUGGCAACUAGGAGCACCAUUUCGCUGCCAGUGAAGAAAUGAACAAAGAAAACCUGGGCCAGGCAGGCAUCAAAAGAAAUAGUCUUGCGCUCAACCAGAAAGUCUGUAAUCAUUUUAAGGGUA
Given back: 1.25

Asked: Output self-cleavage of GUUAACGGUCAUAGGCCAUGGAAACUAGGAGCACCAUUUCGCUGCCAGUGAAGAAAUGAACAAAGAAAAUCUGGGCCAGGCAGGCAUCAAAAGAAAUAGUCUUGUGCUCAUCCAGAAAGUCUGUAAUCAUUUUAAGGGUA
Given back: 0.01

Asked: Tell me self-cleavage reported for GUUAACGGUCAUAGGCCAUGGAAACUAGGAGCACCAUUUCGCUGCCAGUGAAGAAAUGAACAAAGAAAGUCUGGGCCAGGCAGGCAUCAAAAGAAAUAGUCUUGCGCUCACCCAGAAAGUCUGUAAUCAUUUUAAGGGUA
Given back: 0.02

Asked: Please look at this variant and report its self-cleavage: GUUAACGGUCAUAGGCCAUGGAAACUAGGAGCACCAUUUCACUGCCAGUGAAGAAAUGAACAAAGAAAAUCUGGGCCAGGCAGGCAUCAAAAGAAAUAGUCUUGCGCUCGACCAGAAAGUCUGUAAUCAUUUUAAGGGUA
Given back: 0.12

Asked: Using the record for GUUAACGGUCAUAGGCCAUGGAAACUAGGAGCACCAUUUCGCUGCCAGUGAAGAAAUGAACAAAGAAAAUCUGGGCCAGGCAGGCAUCAAAAGUAAUAGUCUUGCGCUCAACCAGAGAGUCUGUAAUCAUUUUAAGGGUA , state its measured self-cleavage.
Given back: 1.95

Asked: Please report the measured self-cleavage for GUUAACGGUCAUAGACCAUGGAAACUAGGAGCACCAUUUCGCUGCCAGUGAAGAAAUGAACAAAGAAAAUCUGGGCCAGGCAGGCAUCAAAAGAAAUAGUCCUGCGCUCAACCAGAAAGUCUGUAAUCAUUUUAAGGGUA
Given back: 1.98

Asked: Report self-cleavage, nothing else, for this variant: GUUAACGGUCACAGGCCAUGGAAACUAGGAGCACCGUUUCGCUGCCAGUGAAGAAAUGAACAAAGAAAAUCUGGGCCAGGCAGGCAUCAAAAGAAAUAGUCUUGCGCUCAACCAGAAAGUCUGUAAUCAUUUUAAGGGUA
Given back: 1.44

Origin of the recorded values: the RNAGym collection of RNA variant scans (doi:10.7554/elife.90254)
